- test-method-notes: Cytotoxicity against human U87MG cells assessed as growth inhibition after 72 hrs by MTT assay
- Assay type: functional, cell-based, U-87MG ATCC
- reported-conditions: U-87 MG
reported-metric: IC50 (µM)
Give just the number in µM; leave the unit off.

### Prompt Requested read-out: IC50. Entry: `O=C1c2ccccc2Nc2ccccc2N1Cc1cn(Cc2cccc3c2OCO3)nn1`
### Response 13.5

### Prompt Follow-up item: `O=c1[nH]cc(F)c(=O)[nH]1`
### Response 3.61

### Prompt Follow-up item: `O=C1c2ccccc2Nc2ccccc2N1Cc1cn(Cc2cccc([N+](=O)[O-])c2)nn1`
### Response 39.4

### Prompt Follow-up item: `O=C1c2ccccc2Nc2ccccc2N1Cc1cn(Cc2ccc([N+](=O)[O-])cc2)nn1`
### Response 32.9

### Prompt Follow-up item: `O=C1c2ccccc2Nc2ccccc2N1Cc1cn(Cc2ccccc2F)nn1`
### Response 48.2

###

- test-method-notes: Cytotoxicity against human U87MG cells assessed as growth inhibition after 72 hrs by MTT assay
- Type: functional, cell-based, U-87MG ATCC
- reported-conditions: U-87 MG
reported-metric: IC50 (µM)
Give just the number in µM; leave the unit off.

Past entries and their recorded results:
O=C1c2ccccc2Nc2ccccc2N1Cc1cn(Cc2cccc(F)c2)nn1 = 2.06
O=C1c2ccccc2Nc2ccccc2N1Cc1cn(Cc2ccccc2)nn1 = 6.97
COc1ccc(OC)c(Cn2cc(CN3C(=O)c4ccccc4Nc4ccccc43)nn2)c1 = 31.2
O=C1c2ccccc2Nc2ccccc2N1Cc1cn(Cc2ccc(F)cc2)nn1 = 37.7

### Prompt Requested read-out: IC50. Entry: `O=C1Nc2ccccc2Nc2ccccc21`
### Response 8.97

### Prompt Follow-up item: `O=C1c2ccccc2Nc2ccccc2N1Cc1cn(Cc2ccc(Cl)cc2)nn1`
### Response 24.3

### Prompt Follow-up item: `COc1cc(Cn2cc(CN3C(=O)c4ccccc4Nc4ccccc43)nn2)cc(OC)c1OC`
### Response 1.78

### Prompt Follow-up item: `C#CCN1C(=O)c2ccccc2Nc2ccccc21`
### Response 22.2

###

- Tested on: MDA-MB-231
- test-method-notes: Cytotoxicity against human MDA-MB-231 cells assessed as growth inhibition after 72 hrs by MTT assay
- Type: functional, cell-based
- reported-conditions: MDA-MB-231, 72 h
reported-metric: IC50 (µM)
Give just the number in µM; leave the unit off.

COc1ccc(OC)c(Cn2cc(CN3C(=O)c4ccccc4Nc4ccccc43)nn2)c1 = 3.5

### Prompt Requested read-out: IC50. Entry: `O=C1c2ccccc2Nc2ccccc2N1Cc1cn(Cc2ccc(F)cc2)nn1`
### Response 4.08

### Prompt Follow-up item: `O=C1c2ccccc2Nc2ccccc2N1Cc1cn(Cc2cccc3c2OCO3)nn1`
### Response 10.2

### Prompt Follow-up item: `O=C1c2ccccc2Nc2ccccc2N1Cc1cn(Cc2ccc([N+](=O)[O-])cc2)nn1`
### Response 42.6

### Prompt Follow-up item: `COc1cc(Cn2cc(CN3C(=O)c4ccccc4Nc4ccccc43)nn2)cc(OC)c1OC`
### Response 0.43

### Prompt Follow-up item: `O=C1c2ccccc2Nc2ccccc2N1Cc1cn(Cc2ccccc2)nn1`
### Response 0.73

### Prompt Follow-up item: `O=C1c2ccccc2Nc2ccccc2N1Cc1cn(Cc2ccc(Cl)cc2)nn1`
### Response 2.31

### Prompt Follow-up item: `O=C1c2ccccc2Nc2ccccc2N1Cc1cn(Cc2cccc([N+](=O)[O-])c2)nn1`
### Response 1.52

### Prompt Follow-up item: `O=C1c2ccccc2Nc2ccccc2N1Cc1cn(Cc2cccc(F)c2)nn1`
### Response 3.53

### Prompt Follow-up item: `C#CCN1C(=O)c2ccccc2Nc2ccccc21`
### Response 16.5

###

- Test system: MDA-MB-231
- test-method-notes: Cytotoxicity against human MDA-MB-231 cells assessed as growth inhibition after 72 hrs by MTT assay
- Format: functional, cell-based
- reported-conditions: MDA-MB-231, 72 h
pIC50: −log10 of the molar value.
The reader will find reported pIC50 values listed item by item below.

Past entries and their recorded results:
O=C1Nc2ccccc2Nc2ccccc21 = < 4.30
O=C1c2ccccc2Nc2ccccc2N1Cc1cn(Cc2ccc(OC(F)(F)F)cc2)nn1 = < 4.30

### Prompt Requested read-out: pIC50. Entry: `O=C1c2ccccc2Nc2ccccc2N1Cc1cn(Cc2ccccc2F)nn1`
### Response < 4.30
